All figures here come from patent US11447466B2.

# assayed target: UniProt:Q9NR97
# Sequence (Q9NR97 27-1041): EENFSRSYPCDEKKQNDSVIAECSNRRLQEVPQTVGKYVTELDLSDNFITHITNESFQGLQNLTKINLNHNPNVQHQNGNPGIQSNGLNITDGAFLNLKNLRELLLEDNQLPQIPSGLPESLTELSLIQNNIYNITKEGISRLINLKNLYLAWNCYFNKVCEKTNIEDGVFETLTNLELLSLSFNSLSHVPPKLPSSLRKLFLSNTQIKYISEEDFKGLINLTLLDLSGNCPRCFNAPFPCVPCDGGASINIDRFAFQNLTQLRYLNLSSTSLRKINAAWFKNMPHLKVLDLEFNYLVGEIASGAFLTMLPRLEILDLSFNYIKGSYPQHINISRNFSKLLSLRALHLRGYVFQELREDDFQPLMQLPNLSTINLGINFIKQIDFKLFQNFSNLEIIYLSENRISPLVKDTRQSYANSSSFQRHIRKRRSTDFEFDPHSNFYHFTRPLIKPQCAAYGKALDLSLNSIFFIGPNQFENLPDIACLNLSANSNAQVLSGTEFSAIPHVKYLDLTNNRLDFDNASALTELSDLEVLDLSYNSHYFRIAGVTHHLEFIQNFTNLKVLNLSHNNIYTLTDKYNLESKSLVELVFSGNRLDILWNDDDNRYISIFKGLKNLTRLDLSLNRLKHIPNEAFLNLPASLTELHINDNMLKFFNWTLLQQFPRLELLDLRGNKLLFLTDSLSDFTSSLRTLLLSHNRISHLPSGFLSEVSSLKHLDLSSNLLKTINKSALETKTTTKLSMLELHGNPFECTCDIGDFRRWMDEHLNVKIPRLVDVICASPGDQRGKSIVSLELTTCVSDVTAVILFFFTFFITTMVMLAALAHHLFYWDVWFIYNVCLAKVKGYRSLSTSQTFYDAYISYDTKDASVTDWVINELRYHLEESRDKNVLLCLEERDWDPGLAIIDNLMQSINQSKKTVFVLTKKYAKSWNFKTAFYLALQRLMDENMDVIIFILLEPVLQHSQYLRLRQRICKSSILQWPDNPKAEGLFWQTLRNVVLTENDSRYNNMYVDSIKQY
# assay comment: TLR8 inhibition reporter assay (HEK-Blue SEAP reporter, R848 stimulation)
# condition description: HEK-Blue cells overexpressing human TLR8, SEAP reporter, R848 15.9 μM, 22 hour incubation
hey, just use Criterion met if measured IC50 is less than 30 nM, otherwise Criterion not met

>  <molecule>
Cc1ncccc1-c1cc(-c2[nH]c3ccc(C4CCN(C(C)C)CC4)cc3c2C(C)C)cn(C)c1=O [Example 344]

>  <assigned class>
Criterion met

$$$$
>  <molecule>
CNC(C)(C)C(=O)N1CCC(c2ccc3[nH]c(-c4cc(C)c(=O)n(C)c4)c(C(C)C)c3c2)CC1 [Example 298]

>  <assigned class>
Criterion not met

$$$$
>  <molecule>
Cc1cc(-c2[nH]c3ccc(C4CCN(CC(=O)N5CCC(=O)N5)CC4)cc3c2C(C)C)cn(C)c1=O [Example 121]

>  <assigned class>
Criterion not met

$$$$

Task item: Please check: IC50 for CCCCN1CCC(c2ccc3[nH]c(-c4cn(C)c(=O)c(Cl)c4C)c(C(C)C)c3c2)CC1 [Example 251] , strictly under 30 nM or not?
Reply: Criterion met

Task item: One more molecule: Cc1c(-c2[nH]c3ccc(C4CCN(S(=O)(=O)CCN5CCCC5)CC4)cc3c2C(C)C)cn(C)c(=O)c1Cl [Example 308]
Reply: Criterion met

Task item: Then what about the molecule Cc1cc(-c2[nH]c3ccc(C4CCN(C5CC(C)OC5=O)CC4)cc3c2C(C)C)cn(C)c1=O (stereo not shown) [Example 149] ?
Reply: Criterion met

###

# assayed target: human TLR7 (Homo sapiens, UniProt Q9NYK1)
# Sequence (Q9NYK1 27-1049): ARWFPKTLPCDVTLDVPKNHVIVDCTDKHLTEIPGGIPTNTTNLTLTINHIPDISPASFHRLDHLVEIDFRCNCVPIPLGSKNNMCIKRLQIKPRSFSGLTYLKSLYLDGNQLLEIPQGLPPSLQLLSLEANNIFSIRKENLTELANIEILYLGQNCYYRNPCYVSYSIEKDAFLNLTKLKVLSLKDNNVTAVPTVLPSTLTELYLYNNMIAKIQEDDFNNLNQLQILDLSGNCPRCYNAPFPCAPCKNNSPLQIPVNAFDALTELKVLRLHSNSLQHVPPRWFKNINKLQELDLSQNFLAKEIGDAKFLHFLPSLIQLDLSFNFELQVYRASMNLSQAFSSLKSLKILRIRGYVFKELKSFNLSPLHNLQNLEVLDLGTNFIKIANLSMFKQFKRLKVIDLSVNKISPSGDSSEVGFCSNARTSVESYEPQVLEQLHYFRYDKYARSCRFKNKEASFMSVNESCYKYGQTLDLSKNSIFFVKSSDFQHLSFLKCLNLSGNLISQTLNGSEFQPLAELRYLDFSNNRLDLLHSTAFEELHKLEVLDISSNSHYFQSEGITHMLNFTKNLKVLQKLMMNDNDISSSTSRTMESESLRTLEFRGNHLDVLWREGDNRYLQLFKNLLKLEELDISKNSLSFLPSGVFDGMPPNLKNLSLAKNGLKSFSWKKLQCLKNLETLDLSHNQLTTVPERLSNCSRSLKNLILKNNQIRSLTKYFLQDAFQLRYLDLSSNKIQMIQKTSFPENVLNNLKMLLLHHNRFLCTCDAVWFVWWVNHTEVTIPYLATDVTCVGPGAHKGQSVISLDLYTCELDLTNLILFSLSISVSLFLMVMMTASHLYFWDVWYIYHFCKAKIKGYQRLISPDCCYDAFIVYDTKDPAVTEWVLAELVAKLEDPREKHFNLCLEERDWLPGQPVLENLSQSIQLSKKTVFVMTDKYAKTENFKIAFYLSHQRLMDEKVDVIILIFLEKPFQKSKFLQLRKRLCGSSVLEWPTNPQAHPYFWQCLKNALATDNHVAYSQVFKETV
# assay comment: TLR7 inhibition reporter assay (HEK-Blue SEAP reporter, gardiquimod stimulation)
# condition description: HEK-Blue cells overexpressing human TLR7, SEAP reporter, gardiquimod 7.5 μM, 22 hour incubation
IC50: recorded values
Quick reminder: number only, in nM, skip the unit.

>  <compound>
CNC(=O)CN1CCC(c2ccc3[nH]c(-c4cn(C)c(=O)c(C#N)c4C)c(C(C)C)c3c2)CC1

>  <measurement unit>
nM

>  <IC50>
38.8

$$$$

Task item: Quick one: IC50 of Cc1c(-c2[nH]c3ccc(C4CCN(CC5CCOC5)CC4)cc3c2C(C)C)cn(C)c(=O)c1Cl (stereo not drawn) [Example 255] ?
Reply: 4.8

Task item: Further, for `CCCN1CCC(c2ccc3[nH]c(-c4cn(C)c(=O)c(Cl)c4C)c(C(C)C)c3c2)CC1` ?
Reply: 3.2

Task item: Input `Cc1c(-c2[nH]c3ccc(C4CCN(CC(=O)N(C)C)CC4)c(F)c3c2C(C)C)cn(C)c(=O)c1Cl`
Reply: 6.6

Task item: Next entry: `Cc1c(-c2[nH]c3ccc(C4CCN(C(=O)CN(C)C)CC4)cc3c2C(C)C)cn(C)c(=O)c1Cl`
Reply: 5.3

Task item: And the next one, `CCCN1CCC(c2ccc3[nH]c(-c4cc(-c5cncnc5)c(=O)n(C)c4)c(C(C)C)c3c2)CC1` ?
Reply: 14.1

Task item: Can you check `CCCN1CCC(c2ccc3[nH]c(-c4cc(-c5cnc(C6CC6)nc5)c(=O)n(C)c4)c(C(C)C)c3c2)CC1` next?
Reply: 1.1

Task item: And then `Cc1cc(-c2[nH]c3ccc(C4CCN(CC(C)C)CC4)cc3c2C(C)C)cn(C)c1=O` , what is it?
Reply: 5

Task item: Request: Cc1c(-c2[nH]c3ccc(C4CCN(CC5CCOC5)CC4)cc3c2C(C)C)cn(C)c(=O)c1Cl (stereo not drawn) [Example 252]
Reply: 4.2

Task item: What do we get for `COCCOCCOCCN1CCC(c2ccc3[nH]c(-c4cn(C)c(=O)c(Cl)c4C)c(C(C)C)c3c2)CC1` ?
Reply: 20.6

Task item: // next record `Cc1cc(-c2[nH]c3ccc(C4CCN(C5COC5)CC4)cc3c2C(C)C)cn(C)c1=O`
Reply: 5.1
